Target or system: T1, 4Ig human B7-H3 (human, UniProt Q5ZPR3 29-466, limits assumed)
T1 construct: Soluble analyte in SPR; also called 4Ig-B7H3; 4Ig B7H3
T1 sequence: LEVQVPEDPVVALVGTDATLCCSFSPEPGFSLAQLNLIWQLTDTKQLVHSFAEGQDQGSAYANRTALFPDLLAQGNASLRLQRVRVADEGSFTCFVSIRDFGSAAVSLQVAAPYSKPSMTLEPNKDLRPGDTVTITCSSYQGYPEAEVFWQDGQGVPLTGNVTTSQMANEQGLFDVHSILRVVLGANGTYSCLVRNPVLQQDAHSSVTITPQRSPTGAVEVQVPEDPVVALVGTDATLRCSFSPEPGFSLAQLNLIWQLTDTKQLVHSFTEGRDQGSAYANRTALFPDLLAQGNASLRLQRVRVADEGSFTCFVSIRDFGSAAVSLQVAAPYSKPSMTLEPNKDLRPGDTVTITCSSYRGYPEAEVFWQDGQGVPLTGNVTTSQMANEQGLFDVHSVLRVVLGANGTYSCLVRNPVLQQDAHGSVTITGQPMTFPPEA
Measurement notes: SPR, Carterra LSA; antibody captured on anti-human Fc lawn, 4Ig human B7-H3 as analyte
Consider the following binders and their measured pKd readings.
Scale: pKd equals -log10([C]), with [C] in mol/L.

Consider the reported pKd for these binders:
{"Binder": "L4H1 (antibody, human IgG1, kappa, V domains shown, Humanized IgG1, HEK293; chains tied by the L/H names; also called YB8 L4 + YB8 H1) VH: QVQLVQSGAEVKKPGASVKVSCKASGYTFTNYDINWVRQATGQGLEWIGWIFPGDGSTQYNEKFQGRVTLTTNTSISTAYMELSSLRSEDTAVYYCARQTTATWFAYWGQGTLVTVSS VL: EIVMTQSPDFQSVTPKEKVTLTCRASQSISDYLHWYQQKPDQSPKLLIKYASQSISGIPSRFSGSGSGTDFTLTINSVEAEDAGVYYCQNGHSFPLTFGQGTKLEIKR", "pKd": 7.64}
{"Binder": "L4H3 (antibody, human IgG1, kappa, V domains shown, Humanized IgG1, HEK293; chains tied by the L/H names; also called YB8 L4 + YB8 H3) VH: QVQLVQSGAEVKKPGASVKVSCKASGYTFTNYDINWVRQATGQGLEWMGWIFPGDGSTQYNEKFKGRVTLTRNTSISTAYMELSSLRSEDTAVYFCARQTTATWFAYWGQGTLVTVSS VL: EIVMTQSPDFQSVTPKEKVTLTCRASQSISDYLHWYQQKPDQSPKLLIKYASQSISGIPSRFSGSGSGTDFTLTINSVEAEDAGVYYCQNGHSFPLTFGQGTKLEIKR", "pKd": 7.89}
{"Binder": "L3H6 (antibody, human IgG1, kappa, V domains shown, Humanized IgG1, HEK293; chains tied by the L/H names; also called YB8 L3 + YB8 H6) VH: QVQLQQSGAEVKKPGASVKLSCKASGYTFTNYDINWVRQATGQGLEWIGWIFPGDGSTQYAQKFQGRATLTTNTSISTAYMELSSLRSEDTAVYFCARQTTATWFAYWGQGTLVTVSS VL: EIVMTQSPDFQSVTPKEKVTLTCRASQSISDYLHWYQQKPDQSPKLLIKYASQSISGVPSRFSGSGSGSDFTLTINSLEAEDAGVYYCQNGHSFPLTFGQGTKLEIKR", "pKd": 7.70}
{"Binder": "L4H2 (antibody, human IgG1, kappa, V domains shown, Humanized IgG1, HEK293; chains tied by the L/H names; also called YB8 L4 + YB8 H2) VH: QVQLQQSGAEVKKPGASVKVSCKASGYTFTNYDINWVRQATGQGLEWIGWIFPGDGSTQYNEKFKGRATLTRNTSISTAYMELSSLRSEDTAVYYCARQTTATWFAYWGQGTLVTVSS VL: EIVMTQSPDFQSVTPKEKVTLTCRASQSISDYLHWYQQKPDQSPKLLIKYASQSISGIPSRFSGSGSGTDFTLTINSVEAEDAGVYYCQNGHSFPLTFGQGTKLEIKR", "pKd": 7.96}

In: Kindly indicate its recorded pKd. Item: L3H2 (antibody, human IgG1, kappa, V domains shown, Humanized IgG1, HEK293; chains tied by the L/H names; also called YB8 L3 + YB8 H2) VH: QVQLQQSGAEVKKPGASVKVSCKASGYTFTNYDINWVRQATGQGLEWIGWIFPGDGSTQYNEKFKGRATLTRNTSISTAYMELSSLRSEDTAVYYCARQTTATWFAYWGQGTLVTVSS VL: EIVMTQSPDFQSVTPKEKVTLTCRASQSISDYLHWYQQKPDQSPKLLIKYASQSISGVPSRFSGSGSGSDFTLTINSLEAEDAGVYYCQNGHSFPLTFGQGTKLEIKR
Out: 7.96

In: Kindly indicate its recorded pKd. Item: L4H5 (antibody, human IgG1, kappa, V domains shown, Humanized IgG1, HEK293; chains tied by the L/H names; also called YB8 L4 + YB8 H5) VH: QVQLVQSGAEVKKPGASVKVSCKASGYTFTNYDINWVRQATGQGLEWMGWIFPGDGSTQYNEKFQGRVTMTTNTSISTAYMELSSLRSEDTAVYYCARQTTATWFAYWGQGTLVTVSS VL: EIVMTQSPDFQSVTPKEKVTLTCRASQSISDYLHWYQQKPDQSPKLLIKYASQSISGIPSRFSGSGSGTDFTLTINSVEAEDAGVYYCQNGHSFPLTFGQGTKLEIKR
Out: 8.03

In: Kindly indicate its recorded pKd. Item: L4H6 (antibody, human IgG1, kappa, V domains shown, Humanized IgG1, HEK293; chains tied by the L/H names; also called YB8 L4 + YB8 H6) VH: QVQLQQSGAEVKKPGASVKLSCKASGYTFTNYDINWVRQATGQGLEWIGWIFPGDGSTQYAQKFQGRATLTTNTSISTAYMELSSLRSEDTAVYFCARQTTATWFAYWGQGTLVTVSS VL: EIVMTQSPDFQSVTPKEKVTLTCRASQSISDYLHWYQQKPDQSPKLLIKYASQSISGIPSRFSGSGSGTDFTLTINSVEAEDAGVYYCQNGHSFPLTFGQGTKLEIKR
Out: 8.02

In: Kindly indicate its recorded pKd. Item: L4H4 (antibody, human IgG1, kappa, V domains shown, Humanized IgG1, HEK293; chains tied by the L/H names; also called YB8 L4 + YB8 H4) VH: QVQLVQSGAEVKKPGASVKVSCKASGYTFTNYDINWVRQATGQGLEWIGWIFPGDGSTQYNEKFQGRVTMTTNTSISTAYMELSSLRSEDTAVYFCARQTTATWFAYWGQGTLVTVSS VL: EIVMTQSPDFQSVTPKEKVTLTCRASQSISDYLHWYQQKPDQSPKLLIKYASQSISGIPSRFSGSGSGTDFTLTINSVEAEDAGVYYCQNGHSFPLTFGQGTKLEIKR
Out: 7.96

In: Kindly indicate its recorded pKd. Item: L3H5 (antibody, human IgG1, kappa, V domains shown, Humanized IgG1, HEK293; chains tied by the L/H names; also called YB8 L3 + YB8 H5) VH: QVQLVQSGAEVKKPGASVKVSCKASGYTFTNYDINWVRQATGQGLEWMGWIFPGDGSTQYNEKFQGRVTMTTNTSISTAYMELSSLRSEDTAVYYCARQTTATWFAYWGQGTLVTVSS VL: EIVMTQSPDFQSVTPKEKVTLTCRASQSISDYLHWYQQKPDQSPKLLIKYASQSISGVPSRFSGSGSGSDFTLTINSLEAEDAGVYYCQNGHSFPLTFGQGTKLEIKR
Out: 8.04

In: Kindly indicate its recorded pKd. Item: L3H4 (antibody, human IgG1, kappa, V domains shown, Humanized IgG1, HEK293; chains tied by the L/H names; also called YB8 L3 + YB8 H4) VH: QVQLVQSGAEVKKPGASVKVSCKASGYTFTNYDINWVRQATGQGLEWIGWIFPGDGSTQYNEKFQGRVTMTTNTSISTAYMELSSLRSEDTAVYFCARQTTATWFAYWGQGTLVTVSS VL: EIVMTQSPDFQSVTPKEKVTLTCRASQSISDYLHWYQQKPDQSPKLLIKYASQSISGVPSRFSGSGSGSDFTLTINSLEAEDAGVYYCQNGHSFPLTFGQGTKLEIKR
Out: 8.08
